target: Integrin alpha-V/beta-3 (Homo sapiens, UniProt P05106+P06756); assay: Binding affinity for Vitronectin receptor (alpha V beta 3)
Sequence (P05106 27-788 limits assumed): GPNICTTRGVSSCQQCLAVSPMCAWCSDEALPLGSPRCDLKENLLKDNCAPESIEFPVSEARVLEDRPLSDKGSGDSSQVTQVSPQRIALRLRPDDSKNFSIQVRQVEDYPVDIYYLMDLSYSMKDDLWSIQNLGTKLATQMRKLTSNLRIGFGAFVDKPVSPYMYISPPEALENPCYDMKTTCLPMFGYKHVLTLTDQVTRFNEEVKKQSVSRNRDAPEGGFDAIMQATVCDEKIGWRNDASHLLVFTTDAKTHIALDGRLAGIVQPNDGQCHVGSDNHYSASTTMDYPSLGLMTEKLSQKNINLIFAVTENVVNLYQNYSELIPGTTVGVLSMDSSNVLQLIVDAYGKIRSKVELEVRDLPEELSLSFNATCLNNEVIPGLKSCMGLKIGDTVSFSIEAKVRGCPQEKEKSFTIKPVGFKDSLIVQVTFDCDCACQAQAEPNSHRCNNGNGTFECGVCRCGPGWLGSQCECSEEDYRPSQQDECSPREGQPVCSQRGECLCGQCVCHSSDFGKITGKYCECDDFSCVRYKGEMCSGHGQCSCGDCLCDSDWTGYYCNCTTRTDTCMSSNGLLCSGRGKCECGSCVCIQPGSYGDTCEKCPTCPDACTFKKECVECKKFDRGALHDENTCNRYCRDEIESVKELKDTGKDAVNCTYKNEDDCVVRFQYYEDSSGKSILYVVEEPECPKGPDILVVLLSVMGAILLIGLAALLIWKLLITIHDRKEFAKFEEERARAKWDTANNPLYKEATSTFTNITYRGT
Sequence (P06756 31-889 limits assumed): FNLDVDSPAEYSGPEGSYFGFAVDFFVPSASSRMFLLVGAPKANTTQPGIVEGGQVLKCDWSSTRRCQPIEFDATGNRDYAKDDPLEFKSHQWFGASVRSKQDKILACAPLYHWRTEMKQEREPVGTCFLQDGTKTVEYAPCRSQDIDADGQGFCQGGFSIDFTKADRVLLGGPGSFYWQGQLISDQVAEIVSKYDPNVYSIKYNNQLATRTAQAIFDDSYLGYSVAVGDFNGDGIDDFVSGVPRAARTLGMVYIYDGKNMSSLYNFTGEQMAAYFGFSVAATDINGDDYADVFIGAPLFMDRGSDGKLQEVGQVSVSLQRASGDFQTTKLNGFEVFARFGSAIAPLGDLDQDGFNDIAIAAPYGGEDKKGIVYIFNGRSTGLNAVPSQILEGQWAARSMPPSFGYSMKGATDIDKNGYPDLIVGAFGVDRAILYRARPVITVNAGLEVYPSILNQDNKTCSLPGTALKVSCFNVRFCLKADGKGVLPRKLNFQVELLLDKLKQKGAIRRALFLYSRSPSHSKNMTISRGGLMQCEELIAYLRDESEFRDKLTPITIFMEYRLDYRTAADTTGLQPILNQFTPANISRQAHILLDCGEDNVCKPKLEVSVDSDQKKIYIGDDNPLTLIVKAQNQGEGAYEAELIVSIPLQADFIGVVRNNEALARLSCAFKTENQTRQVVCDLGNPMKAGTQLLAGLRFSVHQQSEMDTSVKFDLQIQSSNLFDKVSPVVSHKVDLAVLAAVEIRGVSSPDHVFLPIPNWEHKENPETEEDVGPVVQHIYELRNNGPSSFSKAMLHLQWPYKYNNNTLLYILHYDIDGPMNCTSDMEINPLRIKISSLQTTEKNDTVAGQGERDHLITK
Sequence (P06756 891-1048 limits assumed): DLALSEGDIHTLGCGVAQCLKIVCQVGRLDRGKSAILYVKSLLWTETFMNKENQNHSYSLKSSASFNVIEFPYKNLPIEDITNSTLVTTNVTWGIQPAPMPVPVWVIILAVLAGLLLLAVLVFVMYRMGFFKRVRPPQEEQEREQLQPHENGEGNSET
pKi: −log10 of the molar value.
Property measured: pKi

compound="CN1Cc2cc(OCCCNc3ccccn3)ccc2CC(CC(=O)O)C1=O (stereo not given)" endpoint_result=8.72
compound="O=C(O)CC1Cc2ccc(OCCCNc3ccccn3)cc2CN(CC(F)(F)F)C1=O (stereo not given)" endpoint_result=8.89
compound=O=C(O)C[C@@H]1Cc2ccc(OCCCNc3ccccn3)cc2CN(CC(F)(F)F)C1=O endpoint_result=9.05
compound=CNc1cccc(CCOc2ccc3c(c2)CN(CC(F)(F)F)C(=O)[C@H](CC(=O)O)C3)n1 endpoint_result=8.92
compound=O=C(O)C[C@H]1Cc2ccc(OCCCNc3ccccn3)cc2CN(CC(F)(F)F)C1=O endpoint_result=7.70

----------
// values below are reported bioavailability
test: Oral bioavailability in rat; type: ADME, organism-based; settings: in vivo
Property measured: bioavailability (%)

molecule=CNc1cccc(CCOc2ccc3c(c2)CN(CC(F)(F)F)C(=O)[C@H](CC(=O)O)C3)n1 property_measured=bioavailability endpoint_result=72
molecule="CN1Cc2cc(OCCCNc3ccccn3)ccc2CC(CC(=O)O)C1=O (stereo not given)" property_measured=bioavailability endpoint_result=9
molecule=O=C(O)C[C@@H]1Cc2ccc(OCCCNc3ccccn3)cc2CN(CC(F)(F)F)C1=O property_measured=bioavailability endpoint_result=34
molecule=O=C(O)C[C@H]1Cc2ccc(OCCCNc3ccccn3)cc2CN(CC(F)(F)F)C1=O property_measured=bioavailability endpoint_result=4
molecule="O=C(O)CC1Cc2ccc(OCCCNc3ccccn3)cc2CN(CC(F)(F)F)C1=O (stereo not given)" property_measured=bioavailability endpoint_result=19

----------
biological target: Integrin alpha-V/beta-3 (Homo sapiens, UniProt P05106+P06756); test: HEK cell adhesion mediated by alpha v beta 3 integrin
// values below are reported log10 IC50
Property measured: log10 IC50 (log10 of the value in nM)

molecule=CNc1cccc(CCOc2ccc3c(c2)CN(CC(F)(F)F)C(=O)[C@H](CC(=O)O)C3)n1 endpoint_result=0.48
molecule=O=C(O)C[C@@H]1Cc2ccc(OCCCNc3ccccn3)cc2CN(CC(F)(F)F)C1=O endpoint_result=1.08
molecule="CN1Cc2cc(OCCCNc3ccccn3)ccc2CC(CC(=O)O)C1=O (stereo not given)" endpoint_result=1.88
molecule=O=C(O)C[C@H]1Cc2ccc(OCCCNc3ccccn3)cc2CN(CC(F)(F)F)C1=O endpoint_result=2.59
molecule="O=C(O)CC1Cc2ccc(OCCCNc3ccccn3)cc2CN(CC(F)(F)F)C1=O (stereo not given)" endpoint_result=1.72

----------
experiment: Half life period in rat; type: ADME, organism-based; conditions: in vivo
Property measured: half-life (min)

compound=CNc1cccc(CCOc2ccc3c(c2)CN(CC(F)(F)F)C(=O)[C@H](CC(=O)O)C3)n1 property_measured=half-life readout_unit=min endpoint_result=53
compound="O=C(O)CC1Cc2ccc(OCCCNc3ccccn3)cc2CN(CC(F)(F)F)C1=O (stereo unspecified)" property_measured=half-life readout_unit=min endpoint_result=25
compound=O=C(O)C[C@@H]1Cc2ccc(OCCCNc3ccccn3)cc2Cc2ccccc21 property_measured=half-life readout_unit=min endpoint_result=192
compound=O=C(O)C[C@@H]1Cc2ccc(OCCCNc3ccccn3)cc2CN(CC(F)(F)F)C1=O property_measured=half-life readout_unit=min endpoint_result=360
compound=O=C(O)C[C@H]1Cc2ccc(OCCCNc3ccccn3)cc2CN(CC(F)(F)F)C1=O property_measured=half-life readout_unit=min endpoint_result=19
compound="CN1Cc2cc(OCCCNc3ccccn3)ccc2CC(CC(=O)O)C1=O (stereo unspecified)" property_measured=half-life readout_unit=min endpoint_result=16

----------
assay: Plasma clearance in rat; assay type: ADME, organism-based
// values below are reported log10 clearance
Property measured: log10 clearance (log10 of the value in mL/min/kg)

compound="O=C(O)CC1Cc2ccc(OCCCNc3ccccn3)cc2CN(CC(F)(F)F)C1=O (stereo unspecified)" property_measured="log10 clearance" endpoint_result=1.80
compound=O=C(O)C[C@@H]1Cc2ccc(OCCCNc3ccccn3)cc2Cc2ccccc21 property_measured="log10 clearance" endpoint_result=0.60
compound=O=C(O)C[C@@H]1Cc2ccc(OCCCNc3ccccn3)cc2CN(CC(F)(F)F)C1=O property_measured="log10 clearance" endpoint_result=1.20
compound="CN1Cc2cc(OCCCNc3ccccn3)ccc2CC(CC(=O)O)C1=O (stereo unspecified)" property_measured="log10 clearance" endpoint_result=1.70
compound=O=C(O)C[C@H]1Cc2ccc(OCCCNc3ccccn3)cc2CN(CC(F)(F)F)C1=O property_measured="log10 clearance" endpoint_result=1.78
compound=CNc1cccc(CCOc2ccc3c(c2)CN(CC(F)(F)F)C(=O)[C@H](CC(=O)O)C3)n1 property_measured="log10 clearance" endpoint_result=1.40

----------
target: Integrin alpha-IIb/beta-3 (Homo sapiens, UniProt P05106+P08514); experiment: Binding affinity for alpha IIb beta-3 integrin
Sequence (P05106 27-788 limits assumed): as the sequence (P05106 27-788 limits assumed) above
Sequence (P08514 32-887 limits assumed): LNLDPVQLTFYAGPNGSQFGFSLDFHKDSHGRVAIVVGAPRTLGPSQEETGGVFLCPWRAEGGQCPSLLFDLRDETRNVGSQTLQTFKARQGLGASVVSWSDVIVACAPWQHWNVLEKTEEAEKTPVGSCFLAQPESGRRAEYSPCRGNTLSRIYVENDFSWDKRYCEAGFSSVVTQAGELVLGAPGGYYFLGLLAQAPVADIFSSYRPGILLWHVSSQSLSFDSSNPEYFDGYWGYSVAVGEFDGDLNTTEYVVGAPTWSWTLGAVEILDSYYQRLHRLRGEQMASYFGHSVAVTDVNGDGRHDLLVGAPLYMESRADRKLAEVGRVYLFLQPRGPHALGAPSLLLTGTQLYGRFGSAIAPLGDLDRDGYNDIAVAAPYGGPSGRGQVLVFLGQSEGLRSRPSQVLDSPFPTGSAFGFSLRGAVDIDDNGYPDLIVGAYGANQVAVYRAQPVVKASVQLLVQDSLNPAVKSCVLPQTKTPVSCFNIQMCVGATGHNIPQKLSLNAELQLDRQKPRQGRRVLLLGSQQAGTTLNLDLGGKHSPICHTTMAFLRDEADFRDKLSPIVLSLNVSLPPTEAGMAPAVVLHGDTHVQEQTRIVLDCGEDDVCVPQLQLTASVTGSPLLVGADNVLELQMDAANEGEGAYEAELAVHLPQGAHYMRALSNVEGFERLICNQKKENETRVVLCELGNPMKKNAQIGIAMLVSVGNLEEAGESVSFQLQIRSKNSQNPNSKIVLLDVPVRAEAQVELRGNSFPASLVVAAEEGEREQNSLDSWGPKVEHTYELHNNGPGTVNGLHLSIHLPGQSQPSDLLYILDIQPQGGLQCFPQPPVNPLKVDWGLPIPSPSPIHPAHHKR
Sequence (P08514 891-1039 limits assumed): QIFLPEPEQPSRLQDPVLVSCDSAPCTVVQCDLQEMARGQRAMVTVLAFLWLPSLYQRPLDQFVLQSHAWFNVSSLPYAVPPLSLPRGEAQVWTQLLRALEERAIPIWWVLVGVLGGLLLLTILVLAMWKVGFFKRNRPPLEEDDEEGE
pKi: −log10 of the molar value.
Property measured: pKi

compound="O=C(O)CC1Cc2ccc(OCCCNc3ccccn3)cc2CN(CC(F)(F)F)C1=O (centres undefined)" system_under_test="Integrin alpha-IIb/beta-3 (Homo sapiens, UniProt P05106+P08514)" property_measured=pKi endpoint_result=5.05
compound=CNc1cccc(CCOc2ccc3c(c2)CN(CC(F)(F)F)C(=O)[C@H](CC(=O)O)C3)n1 system_under_test="Integrin alpha-IIb/beta-3 (Homo sapiens, UniProt P05106+P08514)" property_measured=pKi endpoint_result=5.42
compound="CN1Cc2cc(OCCCNc3ccccn3)ccc2CC(CC(=O)O)C1=O (centres undefined)" system_under_test="Integrin alpha-IIb/beta-3 (Homo sapiens, UniProt P05106+P08514)" property_measured=pKi endpoint_result=4.52
compound=O=C(O)C[C@@H]1Cc2ccc(OCCCNc3ccccn3)cc2CN(CC(F)(F)F)C1=O system_under_test="Integrin alpha-IIb/beta-3 (Homo sapiens, UniProt P05106+P08514)" property_measured=pKi endpoint_result=5.48

The measured values listed here are drawn from ChEMBL document CHEMBL1133172.
